Cited source for all entries: ChEMBL document CHEMBL4825755

Listing of entries alongside the reported Ki.
Target: PI3-kinase p110-delta/p85-alpha (Homo sapiens, UniProt O00329)
Sequence (O00329 whole entry, one chain of several): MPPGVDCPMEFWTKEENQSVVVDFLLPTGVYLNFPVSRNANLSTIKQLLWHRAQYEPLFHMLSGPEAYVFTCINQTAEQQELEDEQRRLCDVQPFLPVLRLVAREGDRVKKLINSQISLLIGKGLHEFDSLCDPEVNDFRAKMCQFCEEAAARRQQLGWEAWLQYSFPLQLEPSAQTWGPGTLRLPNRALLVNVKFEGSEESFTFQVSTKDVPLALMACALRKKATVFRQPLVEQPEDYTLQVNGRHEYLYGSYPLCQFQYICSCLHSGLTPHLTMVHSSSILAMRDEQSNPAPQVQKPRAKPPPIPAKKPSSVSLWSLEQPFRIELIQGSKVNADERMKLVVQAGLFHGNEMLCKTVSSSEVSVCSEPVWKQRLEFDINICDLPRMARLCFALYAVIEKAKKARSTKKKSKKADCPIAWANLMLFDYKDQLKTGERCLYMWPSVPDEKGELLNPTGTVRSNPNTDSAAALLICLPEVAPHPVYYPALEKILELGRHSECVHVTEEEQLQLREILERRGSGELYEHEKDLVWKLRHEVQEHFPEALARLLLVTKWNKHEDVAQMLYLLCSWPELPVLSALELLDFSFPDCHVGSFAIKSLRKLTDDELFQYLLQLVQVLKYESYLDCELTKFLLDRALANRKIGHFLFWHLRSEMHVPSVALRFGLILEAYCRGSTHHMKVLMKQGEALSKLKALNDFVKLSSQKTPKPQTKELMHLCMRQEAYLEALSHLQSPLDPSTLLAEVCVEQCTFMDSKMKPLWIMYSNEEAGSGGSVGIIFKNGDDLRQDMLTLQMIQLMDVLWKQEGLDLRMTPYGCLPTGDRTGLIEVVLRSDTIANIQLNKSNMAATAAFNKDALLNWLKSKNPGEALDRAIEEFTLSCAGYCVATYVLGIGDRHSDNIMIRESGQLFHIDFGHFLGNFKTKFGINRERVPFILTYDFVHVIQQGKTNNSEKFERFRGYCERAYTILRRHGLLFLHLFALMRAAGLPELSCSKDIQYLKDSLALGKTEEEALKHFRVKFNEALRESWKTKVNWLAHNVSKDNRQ
Assay: Inhibition of recombinant human N-terminal His6-tagged full length P110delta/full length untagged human p85alpha expressed in baculovirus infected Sf21 insect cells using PIP2 as substrate preincubated for 15 mins followed by substrate addition and measured after 60 mins by HTRF assay
ENDPOINT LABEL: Ki (nM)

INSERT INTO measurements (given_smiles, result) VALUES
  ('COc1ncc(C2=CCOCC2)cc1S(=O)(=O)Nc1cncc(-c2ccc(CN3C[C@@H](C)O[C@@H](C)C3)cc2)c1', 0.01),
  ('COc1ncc(N2CCOCC2)cc1S(=O)(=O)Nc1cncc(-c2ccc(CN3CCN(C(C)C)CC3)cc2)c1', 0.0794),
  ('COc1ncc(C2=CCOCC2)cc1S(=O)(=O)Nc1cncc(-c2ccc(CN3CCN(C(C)C)CC3)cc2)c1', 0.01),
  ('COc1ncc(N2CCOCC2)cc1S(=O)(=O)Nc1ccnc(-c2ccc(CN3CCN(C(C)C)CC3)c(F)c2)c1', 0.0501),
  ('COc1ncc(N2CCOCC2)cc1S(=O)(=O)Nc1ccnc(-c2ccc(CN3CCN(C(C)C)CC3)cc2)c1', 0.0398),
  ('COc1ncc(N2CCOCC2)cc1S(=O)(=O)Nc1ccnc(-c2ccc(CN3CCN(C(C)C)CC3)c(F)c2F)c1', 0.0631);

* * *

Molecular target: Phosphatidylinositol 4,5-bisphosphate 3-kinase catalytic subunit gamma isoform (Homo sapiens)
Sequence (P48736 whole entry, canonical isoform): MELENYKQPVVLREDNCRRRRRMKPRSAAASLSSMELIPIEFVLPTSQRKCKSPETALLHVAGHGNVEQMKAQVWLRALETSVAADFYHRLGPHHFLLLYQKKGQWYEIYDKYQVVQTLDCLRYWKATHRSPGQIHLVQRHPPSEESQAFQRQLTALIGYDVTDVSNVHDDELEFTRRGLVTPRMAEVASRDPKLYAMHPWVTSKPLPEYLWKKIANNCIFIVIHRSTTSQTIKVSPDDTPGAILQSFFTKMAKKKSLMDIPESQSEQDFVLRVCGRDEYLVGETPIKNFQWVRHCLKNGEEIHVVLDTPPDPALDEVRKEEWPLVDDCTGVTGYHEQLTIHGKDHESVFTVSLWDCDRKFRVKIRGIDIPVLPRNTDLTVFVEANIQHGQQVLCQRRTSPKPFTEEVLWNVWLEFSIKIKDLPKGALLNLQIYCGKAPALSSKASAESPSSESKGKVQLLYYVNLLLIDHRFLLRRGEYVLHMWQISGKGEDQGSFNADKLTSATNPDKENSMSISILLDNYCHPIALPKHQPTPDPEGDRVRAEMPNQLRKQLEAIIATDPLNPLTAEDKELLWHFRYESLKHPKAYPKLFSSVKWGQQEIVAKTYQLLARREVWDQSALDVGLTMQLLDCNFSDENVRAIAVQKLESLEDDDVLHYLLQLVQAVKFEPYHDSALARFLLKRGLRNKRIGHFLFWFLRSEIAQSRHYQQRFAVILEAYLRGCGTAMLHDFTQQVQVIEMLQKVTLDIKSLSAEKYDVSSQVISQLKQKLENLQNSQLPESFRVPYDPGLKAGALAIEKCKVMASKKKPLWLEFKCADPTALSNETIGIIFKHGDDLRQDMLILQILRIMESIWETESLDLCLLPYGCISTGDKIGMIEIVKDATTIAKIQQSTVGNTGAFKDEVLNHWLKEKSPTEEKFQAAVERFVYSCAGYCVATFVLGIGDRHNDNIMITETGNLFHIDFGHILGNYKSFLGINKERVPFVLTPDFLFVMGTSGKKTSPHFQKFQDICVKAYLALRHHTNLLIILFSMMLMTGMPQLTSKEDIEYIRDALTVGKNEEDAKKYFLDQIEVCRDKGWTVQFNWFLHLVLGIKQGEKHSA
Test: Inhibition of recombinant human N-terminal His6-tagged full length P120gamma expressed in baculovirus infected Sf21 insect cells using PIP2 as substrate preincubated for 15 mins followed by substrate addition and measured after 60 mins by HTRF assay
ENDPOINT LABEL: IC50 (µM)

INSERT INTO measurements (given_smiles, result) VALUES
  ('COc1ncc(C2=CCOCC2)cc1S(=O)(=O)Nc1cncc(-c2cccc(CN3CCCC3)c2)c1', 3.98),
  ('COc1ncc(N2CCOCC2)cc1S(=O)(=O)Nc1cncc(-c2ccc(CN3CCCC3)cc2)c1', 10),
  ('COc1ncc(C2=CCOCC2)cc1S(=O)(=O)Nc1cncc(-c2ccc(CN3C[C@@H](C)O[C@@H](C)C3)cc2)c1', 0.794),
  ('COc1ncc(C2=CCOCC2)cc1S(=O)(=O)Nc1cncc(C2=CCN(C)CC2)c1', 5.01),
  ('COc1ncc(C2=CCOCC2)cc1S(=O)(=O)Nc1cncc(C)c1', 5.01),
  ('COc1ncc(N2CCOCC2)cc1S(=O)(=O)Nc1ccnc(-c2ccc(CN3CCN(C(C)C)CC3)c(F)c2F)c1', 2),
  ('COc1ncc(C2=CCOCC2)cc1S(=O)(=O)Nc1cncc(C#CCN2C[C@@H](C)O[C@@H](C)C2)c1', 5.01),
  ('COc1ncc(C2=CCOCC2)cc1S(=O)(=O)Nc1cncc(C#CCN2CCN(C(C)C)CC2)c1', 25.1),
  ('COc1ncc(N2CCOCC2)cc1S(=O)(=O)Nc1ccnc(-c2ccc(CN3CCN(C(C)C)CC3)cc2F)c1', 2);

* * *

Target: PI3K p110 beta/p85 alpha (Homo sapiens, UniProt P42338)
Sequence (P27986 whole entry): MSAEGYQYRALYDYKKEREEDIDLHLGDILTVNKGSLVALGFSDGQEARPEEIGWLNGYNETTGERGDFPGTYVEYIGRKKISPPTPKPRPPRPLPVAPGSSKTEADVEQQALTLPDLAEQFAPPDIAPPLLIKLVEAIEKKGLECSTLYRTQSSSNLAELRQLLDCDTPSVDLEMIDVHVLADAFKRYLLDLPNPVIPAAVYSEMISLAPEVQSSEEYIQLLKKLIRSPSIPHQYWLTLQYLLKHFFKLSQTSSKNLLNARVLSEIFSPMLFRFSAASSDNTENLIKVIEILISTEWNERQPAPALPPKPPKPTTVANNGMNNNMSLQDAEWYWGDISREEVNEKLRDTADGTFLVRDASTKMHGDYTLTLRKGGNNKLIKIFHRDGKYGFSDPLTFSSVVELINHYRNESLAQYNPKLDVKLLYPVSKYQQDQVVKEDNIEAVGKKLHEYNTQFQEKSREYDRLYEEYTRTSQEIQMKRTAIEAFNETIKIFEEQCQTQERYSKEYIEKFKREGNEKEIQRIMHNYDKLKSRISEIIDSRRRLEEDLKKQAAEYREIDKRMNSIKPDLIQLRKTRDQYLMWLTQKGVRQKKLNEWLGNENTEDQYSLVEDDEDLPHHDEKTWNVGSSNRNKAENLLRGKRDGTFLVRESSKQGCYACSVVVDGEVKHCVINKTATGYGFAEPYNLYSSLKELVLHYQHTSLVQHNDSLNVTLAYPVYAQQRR
Sequence (P42338 whole entry): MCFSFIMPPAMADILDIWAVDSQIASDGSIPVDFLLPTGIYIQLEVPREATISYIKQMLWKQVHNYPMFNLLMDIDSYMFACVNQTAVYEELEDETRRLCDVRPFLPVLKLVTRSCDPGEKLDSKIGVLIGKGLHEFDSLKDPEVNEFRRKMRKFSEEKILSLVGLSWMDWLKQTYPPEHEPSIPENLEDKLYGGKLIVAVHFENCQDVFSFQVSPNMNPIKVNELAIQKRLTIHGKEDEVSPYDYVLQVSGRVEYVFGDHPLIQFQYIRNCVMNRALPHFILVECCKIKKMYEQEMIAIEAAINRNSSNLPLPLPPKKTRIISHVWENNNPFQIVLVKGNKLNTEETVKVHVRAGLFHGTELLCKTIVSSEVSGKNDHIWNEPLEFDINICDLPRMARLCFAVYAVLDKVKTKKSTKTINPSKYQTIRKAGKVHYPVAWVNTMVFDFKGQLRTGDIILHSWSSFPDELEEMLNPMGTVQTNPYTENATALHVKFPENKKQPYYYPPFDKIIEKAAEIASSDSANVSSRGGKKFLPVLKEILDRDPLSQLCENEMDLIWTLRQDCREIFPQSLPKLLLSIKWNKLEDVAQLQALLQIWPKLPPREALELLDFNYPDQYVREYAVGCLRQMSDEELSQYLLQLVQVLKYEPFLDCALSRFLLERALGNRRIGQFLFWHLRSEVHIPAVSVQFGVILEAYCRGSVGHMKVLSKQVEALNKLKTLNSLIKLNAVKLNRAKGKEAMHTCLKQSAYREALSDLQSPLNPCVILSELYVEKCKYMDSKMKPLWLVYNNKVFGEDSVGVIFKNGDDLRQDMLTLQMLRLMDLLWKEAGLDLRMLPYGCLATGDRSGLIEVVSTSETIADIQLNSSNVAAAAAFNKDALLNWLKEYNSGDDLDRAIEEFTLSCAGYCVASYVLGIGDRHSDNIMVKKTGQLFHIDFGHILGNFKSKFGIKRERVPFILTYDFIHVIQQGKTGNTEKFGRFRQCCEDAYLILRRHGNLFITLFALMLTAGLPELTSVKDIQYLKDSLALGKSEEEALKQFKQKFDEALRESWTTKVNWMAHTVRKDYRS
Experiment: Inhibition of recombinant human N-terminal His6-tagged full length P110beta/full length untagged human p85alpha expressed in baculovirus infected Sf21 insect cells using PIP2 as substrate preincubated for 15 mins followed by substrate addition and measured after 60 mins by HTRF assay
Please use y for IC50 under 2000 nM and n for everything else, ties included.

INSERT INTO assay_data (given_smiles, answer_label) VALUES
  ('COc1ncc(C2=CCOCC2)cc1S(=O)(=O)Nc1cncc(-c2ccc(CN3CCCC3)cc2)c1', 'y'),
  ('COc1ncc(N2CCOCC2)cc1S(=O)(=O)Nc1ccnc(-c2ccc(CN3CCC(C(C)(C)O)CC3)cc2F)c1', 'n'),
  ('COc1ncc(N2CCOCC2)cc1S(=O)(=O)Nc1cncc(-c2ccc(CN3CCN(C(C)C)CC3)cc2)c1', 'n'),
  ('COc1ncc(C2=CCOCC2)cc1S(=O)(=O)Nc1cncc(-c2cccc(CN3CCCC3)c2)c1', 'y'),
  ('COc1ncc(C2=CCOCC2)cc1S(=O)(=O)Nc1cncc(-c2ccc(N3CCN(C(C)C)CC3)cc2)c1', 'y'),
  ('COc1ncc(C2=CCOCC2)cc1S(=O)(=O)Nc1cncc(C#CCN2C[C@@H](C)O[C@@H](C)C2)c1', 'n'),
  ('COc1ncc(C2=CCOCC2)cc1S(=O)(=O)Nc1cncc(-c2ccc(CN3CCN(C)CC3)cc2)c1', 'y'),
  ('COc1ncc(C2=CCOCC2)cc1S(=O)(=O)Nc1cncc(-c2ccc(CN3C[C@@H](C)N(C)[C@@H](C)C3)cc2)c1', 'n'),
  ('COc1ncc(C2=CCOCC2)cc1S(=O)(=O)Nc1cncc(C#CCN2CCN(C(C)C)CC2)c1', 'n'),
  ('COc1ncc(N2CCOCC2)cc1S(=O)(=O)Nc1ccnc(-c2ccc(CN3C[C@@H](C)O[C@@H](C)C3)cc2F)c1', 'y'),
  ('COc1ncc(C2=CCOCC2)cc1S(=O)(=O)Nc1cncc(-c2ccc(CN3CCN(C(C)C)CC3)cc2)c1', 'y'),
  ('COc1ncc(C2=CCOCC2)cc1S(=O)(=O)Nc1cncc(-c2ccc(CN3CCNCC3)cc2)c1', 'y');

* * *

Listing of entries alongside the reported pIC50.
Target: Phosphatidylinositol 4,5-bisphosphate 3-kinase catalytic subunit delta isoform (Homo sapiens)
Sequence (O00329 whole entry, canonical isoform): as the sequence (O00329 whole entry, one chain of several) above
Test: Inhibition of PI3Kdelta in human whole blood assessed as reduction in cytostim-stimulated IFNgamma production preincubated for 1 hr followed by cytostim stimulation and measured after 20 hrs by electrochemiluminescence assay
pIC50: −log10 of the molar value.
ENDPOINT LABEL: pIC50

INSERT INTO results (given_smiles, result) VALUES
  ('COc1ncc(N2CCOCC2)cc1S(=O)(=O)Nc1ccnc(-c2ccc(CN3CCN(C(C)(C)C)CC3)cc2)c1', 8.10),
  ('COc1ncc(C2=CCOCC2)cc1S(=O)(=O)Nc1ccccc1', 5.40),
  ('COc1ncc(C2=CCOCC2)cc1S(=O)(=O)Nc1cncc(-c2ccc(CN3CCN(C(C)C)CC3)nc2)c1', 7.50),
  ('COc1ncc(C2=CCOCC2)cc1S(=O)(=O)Nc1cncc(-c2ccc(N3CCN(C(C)C)CC3)cc2)c1', 7.30),
  ('COc1ncc(N2CCOCC2)cc1S(=O)(=O)Nc1ccnc(-c2ccc(CN3CCN(C(C)(C)C)CC3)cc2F)c1', 8.60),
  ('COc1ncc(C2=CCOCC2)cc1S(=O)(=O)Nc1cncc(-c2ccc(CN3CCN(C(C)C)CC3)cc2)c1', 7.90),
  ('COc1ncc(C2=CCOCC2)cc1S(=O)(=O)Nc1cncc(-c2ccc(CN3C[C@@H](C)N(C)[C@@H](C)C3)cc2)c1', 8.90),
  ('COc1ncc(C2=CCOCC2)cc1S(=O)(=O)Nc1cncc(-c2ccc(CN3CCN(C)CC3)cc2)c1', 7.40);

* * *

Molecular target: Phosphatidylinositol 4,5-bisphosphate 3-kinase catalytic subunit gamma isoform (Homo sapiens)
Assay: Inhibition of recombinant human N-terminal His6-tagged full length P120gamma expressed in baculovirus infected Sf21 insect cells using PIP2 as substrate preincubated for 15 mins followed by substrate addition and measured after 60 mins by HTRF assay
ENDPOINT LABEL: IC50 (µM)

INSERT INTO assay_data (given_smiles, unit_spec, result) VALUES
  ('COc1ncc(C2=CCOCC2)cc1S(=O)(=O)Nc1cncc(-c2cccc(CN3CCCCC3)c2)c1', 'µM', 6.31),
  ('COc1ncc(N2CCOCC2)cc1S(=O)(=O)Nc1ccnc(-c2ccc(CN3CCN(C(C)(C)C)CC3)cc2)c1', 'µM', 3.98),
  ('COc1ncc(N2CCOCC2)cc1S(=O)(=O)Nc1cncc(-c2ccc(CN3CCCC3)cc2F)c1', 'µM', 2.51),
  ('COc1ncc(N2CCOCC2)cc1S(=O)(=O)Nc1ccnc(-c2ccc(CN3CCN(C(C)(C)C)CC3)cc2F)c1', 'µM', 2),
  ('COc1ncc(C2=CCOCC2)cc1S(=O)(=O)Nc1cncc(-c2ccc(CN3CCNCC3)cc2)c1', 'µM', 7.94),
  ('COc1ncc(N2CCOCC2)cc1S(=O)(=O)Nc1cncc(-c2ccc(CN3CCN(C(C)C)CC3)cc2)c1', 'µM', 7.94),
  ('COc1ncc(C2=CCOCC2)cc1S(=O)(=O)Nc1cncc(-c2ccc(N3CCN(C(C)C)CC3)cc2)c1', 'µM', 7.94),
  ('COc1ncc(N2CCOCC2)cc1S(=O)(=O)Nc1ccnc(-c2ccc(CN3CCN(C(C)C)CC3)cc2)c1', 'µM', 5.01);

* * *

Assay: Permeability of compound in MDCK cells
Type: ADME, cell-based, Canis lupus familiaris
Settings: dog, read-out: permeability
ENDPOINT LABEL: Papp (×10⁻⁶ cm/s)

INSERT INTO assay_data (given_smiles, result) VALUES
  ('COc1ncc(N2CCOCC2)cc1S(=O)(=O)Nc1ccnc(-c2ccc(CN3CCN(C(C)C)CC3)cc2F)c1', 2.3);
